Assay Overview: Solubility of clofazimine in fatty acids
Type: physicochemical
Measurement Setup: fatty acid, 25 °C, oil or lipid, Hexanoic acid

Compound: CC(C)/N=c1\cc2n(-c3ccc(Cl)cc3)c3ccccc3nc-2cc1Nc1ccc(Cl)cc1 [Clofazimine]
Readout Units: mg/mL
solubility: 80.7

----------
Assay Overview: Solubility of clofazimine in various solvents
Measurement Setup: 25 °C, organic solvent or mixture, thermodynamic from solid

Structure: CC(C)/N=c1\cc2n(-c3ccc(Cl)cc3)c3ccccc3nc-2cc1Nc1ccc(Cl)cc1
solubility at 24 h / µg/mL: 7480

----------
System Name: Kv1.3 channels in human Jurkat E6-1 cells (Homo sapiens, UniProt P22001)
Sequence (P22001 whole entry): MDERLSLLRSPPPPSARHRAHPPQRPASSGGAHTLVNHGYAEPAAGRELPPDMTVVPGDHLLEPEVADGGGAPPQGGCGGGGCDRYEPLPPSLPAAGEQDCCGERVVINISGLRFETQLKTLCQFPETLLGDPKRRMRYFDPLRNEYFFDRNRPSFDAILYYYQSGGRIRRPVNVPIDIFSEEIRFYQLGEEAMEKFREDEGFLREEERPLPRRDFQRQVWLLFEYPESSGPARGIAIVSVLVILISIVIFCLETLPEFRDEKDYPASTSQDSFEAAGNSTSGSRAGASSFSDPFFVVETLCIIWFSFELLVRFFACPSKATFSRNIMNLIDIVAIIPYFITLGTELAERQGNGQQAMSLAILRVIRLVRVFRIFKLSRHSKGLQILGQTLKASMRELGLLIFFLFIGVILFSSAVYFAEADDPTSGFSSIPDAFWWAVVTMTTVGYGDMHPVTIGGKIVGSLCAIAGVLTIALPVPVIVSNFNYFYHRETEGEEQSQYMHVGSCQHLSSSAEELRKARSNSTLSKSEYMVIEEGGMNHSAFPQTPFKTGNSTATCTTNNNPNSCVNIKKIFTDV
Assay Overview: Inhibition of Kv1.3 channel current, voltage ramp protocol
Endpoint Label: IC50 (µM)

Structure: CC(C)/N=c1\cc2n(-c3ccc(Cl)cc3)c3ccccc3nc-2cc1Nc1ccc(Cl)cc1
Endpoint Label: IC50
Readout Units: µM
Recorded Result: 3.3

----------
Assay Overview: Solubility of clofazimine in various solvents
Measurement Setup: solvent, 25 °C, organic solvent or mixture, thermodynamic from solid, Solubility, Tween 80, 25° C.

Structure: CC(C)/N=c1\cc2n(-c3ccc(Cl)cc3)c3ccccc3nc-2cc1Nc1ccc(Cl)cc1
solubility at 24 h, mg/mL: 10.1

----------
Assay Overview: Solubility of clofazimine in fatty acids
Type: physicochemical
Measurement Setup: fatty acid, 25 °C, oil or lipid, Octanoic acid

Compound: CC(C)/N=c1\cc2n(-c3ccc(Cl)cc3)c3ccccc3nc-2cc1Nc1ccc(Cl)cc1 [Clofazimine]
Readout Units: mg/mL
solubility: 56.3

----------
Assay Overview: Solubility of clofazimine in fatty acids
Type: physicochemical
Measurement Setup: fatty acid, 25 °C, organic solvent or mixture, Acetic acid

Compound: CC(C)/N=c1\cc2n(-c3ccc(Cl)cc3)c3ccccc3nc-2cc1Nc1ccc(Cl)cc1 [Clofazimine]
solubility [mg/mL]: 30.2

----------
Assay Overview: Solubility of clofazimine in various solvents
Measurement Setup: solvent, 25 °C, organic solvent or mixture, thermodynamic from solid, Solubility, Tween 20, 25° C.

Compound: CC(C)/N=c1\cc2n(-c3ccc(Cl)cc3)c3ccccc3nc-2cc1Nc1ccc(Cl)cc1 [Clofazimine]
solubility at 24 h (µg/mL): 7400

----------
Assay Overview: Solubility of clofazimine in various solvents
Measurement Setup: solvent, 25 °C, organic solvent or mixture, thermodynamic from solid, Solubility, Propane 1,2-diol

Structure: CC(C)/N=c1\cc2n(-c3ccc(Cl)cc3)c3ccccc3nc-2cc1Nc1ccc(Cl)cc1
solubility at 24 h / mg/mL: 0.42

----------
Assay Overview: Solubility of clofazimine in various solvents
Measurement Setup: solvent, 25 °C, organic solvent or mixture, thermodynamic from solid, Solubility, Oleic acid polyethylene glycol glyceride

Structure: CC(C)/N=c1\cc2n(-c3ccc(Cl)cc3)c3ccccc3nc-2cc1Nc1ccc(Cl)cc1
Readout Units: mg/mL
solubility at 24 h: 12.2
